Target: human HER3 on human cancer cells (human, UniProt P21860 20-1342)
Experiment: cell-based or functional assay
Property: BT474 clonogenic assay % Max inhibition (%)
Please reply with the bare figure in % and do not write the unit itself.

>>> result_number("3E1 antibody, human IgG1 (antibody, V domains shown, IgG1, lambda) VH: EVQLLESGGGLVQPGGSLRLSCAASGFTFSYYYMQWVRQAPGKGLEWVSYIGSSGGVTNYADSVKGRFTISRDNSKNTLYLQMNSLRAEDTAVYYCARVGLGDAFDIWGQGTMVTVSS VL: QSVLTQPPSASGTPGQRVTISCRGSSSNIGLNYVSWYQQLPGTAPKLLISRNNQRPSGVPDRFSGSKSGTSASLAISGLRSEDEADYYCAAWDDSPPGEAFGGGTKLTVL")
79.2

Report BT474 clonogenic assay % Max inhibition for 2F10 antibody, human IgG1 (antibody, V domains shown) VH: EVQLLESGGGLVQPGGSLRLSCAASGFTFSYYYMQWVRQAPGKGLEWVSYIGSSGGVTNYADSVKGRFTISRDNSKNTLYLQMNSLRAEDTAVYYCARVGLGDAFDIWGQGTMVTVSS VL: QSVLTQPPSASGTPGQRVTISCSGSSSNIGLNYVSWYQQLPGTAPKLLISRNNQRPSGVPDRFSGSKSGTSASLAISGLRSEDEADYYCAAWDDSPSGEAFGGGTKLTVL please.
80.4

Endpoint output: BT474 clonogenic assay % Max inhibition of Clone 16 antibody (CL16), human IgG1 (antibody, V domains shown, also called parental IgG; Clone 16-PA) VH: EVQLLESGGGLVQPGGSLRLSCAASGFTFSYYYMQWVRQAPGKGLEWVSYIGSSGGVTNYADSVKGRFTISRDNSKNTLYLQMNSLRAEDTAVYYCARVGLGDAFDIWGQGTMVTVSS VL: QYELTQPPSASGTPGQRVTMSCSGSSSNIGLNYVSWYQQLPGTAPKLLISRNNQRPSGVPDRFSGSKSGTSASLAISGLRSEDEADYYCAAWDDSLSGEVFGGGTKLTVL . Value?
79.8

For 2C2 monoclonal antibody, human IgG1 (antibody, V domains shown) VH: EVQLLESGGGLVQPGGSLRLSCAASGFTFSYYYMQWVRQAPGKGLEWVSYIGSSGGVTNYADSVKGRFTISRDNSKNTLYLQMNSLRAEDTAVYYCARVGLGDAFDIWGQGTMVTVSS VL: QSVLTQPPSASGTPGQRVTISCSGSLSNIGLNYVSWYQQLPGTAPKLLISRNNQRPSGVPDRFSGSKSGTSASLAISGLRSEDEADYYCAAWDDSPPGEAFGGGTKLTVL , what is its reported BT474 clonogenic assay % Max inhibition?
87.2
